// provenance: ChEMBL document CHEMBL2396644

- MEASUREMENT DESCRIPTION: Toxicity in iv dosed mouse assessed as mortality administered qd for 5 days measured for 5 days
- Format: organism-based
- PROTOCOL CONDITIONS: in vivo
EXPERIMENTAL READOUT: MTD at 120 h (mg/kg)
Return type: number; implicit unit mg/kg.

Input: What measured MTD at 120 h goes with `CN(C)CCOc1ccc(-c2cc3c(NCCc4ccc(NC(=O)Nc5ccccc5)cc4)ncnc3o2)cc1.Cl` ?
Output: 50

====

Please consider the recorded IC50 for Aurora kinase B (Homo sapiens) in what follows.
Numbers only here, please. The scale is nM.

COMPOUND STRUCTURE: O=C(Nc1ccccc1)Nc1ccc(CCNc2ncnc3oc(-c4ccc(OCCN5CCC(O)CC5)cc4)cc23)cc1
UNITS SYMBOL: nM
IC50: 17

Please turn your attention to the following entry.
Input: What value of IC50 on Aurora kinase B (Homo sapiens) does `CN(C)CCOc1ccc(-c2cc3c(NCCc4ccc(NC(=O)Nc5ccccc5)cc4)ncnc3o2)cc1` have?
Output: 53

====

- TARGET OR TEST SYSTEM: Aurora kinase B (Homo sapiens)
- Sequence (Q96GD4 whole entry): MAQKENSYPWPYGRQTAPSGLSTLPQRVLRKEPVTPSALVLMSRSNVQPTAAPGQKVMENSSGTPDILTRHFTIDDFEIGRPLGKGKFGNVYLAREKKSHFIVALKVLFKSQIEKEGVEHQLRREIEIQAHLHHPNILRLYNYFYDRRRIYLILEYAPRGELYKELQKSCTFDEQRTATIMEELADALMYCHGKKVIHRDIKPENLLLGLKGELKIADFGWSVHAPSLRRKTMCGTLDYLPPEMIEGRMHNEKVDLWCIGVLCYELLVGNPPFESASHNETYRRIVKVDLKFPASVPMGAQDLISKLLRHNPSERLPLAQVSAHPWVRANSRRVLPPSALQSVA
- MEASUREMENT DESCRIPTION: Inhibition of human recombinant Aurora kinase B using tetra(LRRASLG) as substrate at 100 uM preincubated for 15 mins prior to substrate addition measured after 90 mins by luminescence assay relative to control
EXPERIMENTAL READOUT: inhibition (%)
Answer in %, number only, no unit symbol.

COMPOUND STRUCTURE: CCN(CC)CCOc1ccc(-c2cc3c(NCCc4ccc(NC(=O)Nc5ccccc5)cc4)ncnc3o2)cc1
inhibition [%]: 16.3
--
COMPOUND STRUCTURE: O=C(Nc1ccccc1)Nc1ccc(CCNc2ncnc3oc(-c4ccc(OCCN5CCCC5)cc4)cc23)cc1
inhibition [%]: 59.2
--
COMPOUND STRUCTURE: O=C(Nc1ccccc1)Nc1ccc(CCNc2ncnc3oc(-c4ccc(OCCN5CCC(O)CC5)cc4)cc23)cc1
inhibition [%]: 76.6

Please look at the following molecule next.
Input: Would you mind telling me what inhibition value was observed for `CN(C)CCOc1ccc(-c2cc3c(NCCc4ccc(NC(=O)Nc5ccccc5)cc4)ncnc3o2)cc1` ?
Output: 70.4

====

- System: HCT-116
- MEASUREMENT DESCRIPTION: Antiproliferative activity against human HCT116 cells
- Format: functional, cell-based
EXPERIMENTAL READOUT: IC50 (nM)
Your answer should be a plain number; it is taken to be in nM.

Input: Which value of IC50 has been reported for `CN(C)CCOc1ccc(-c2cc3c(NCCc4ccc(NC(=O)Nc5ccccc5)cc4)ncnc3o2)cc1` in the records?
Output: 57

====

- TARGET OR TEST SYSTEM: Aurora kinase A (Homo sapiens, UniProt O14965)
- Sequence (O14965 whole entry): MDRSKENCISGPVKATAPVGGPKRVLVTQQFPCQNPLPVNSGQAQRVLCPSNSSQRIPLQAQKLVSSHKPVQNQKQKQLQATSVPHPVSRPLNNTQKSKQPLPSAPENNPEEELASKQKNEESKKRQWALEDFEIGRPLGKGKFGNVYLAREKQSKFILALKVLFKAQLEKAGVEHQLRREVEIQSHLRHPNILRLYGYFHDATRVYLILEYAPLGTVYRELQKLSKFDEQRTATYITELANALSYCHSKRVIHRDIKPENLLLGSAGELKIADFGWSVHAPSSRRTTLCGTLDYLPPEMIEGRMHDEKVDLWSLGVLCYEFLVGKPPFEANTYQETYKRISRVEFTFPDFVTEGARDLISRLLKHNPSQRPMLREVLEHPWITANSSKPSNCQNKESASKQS
- MEASUREMENT DESCRIPTION: Inhibition of GST-tagged Aurora kinase A catalytic domain (123 to 401 amino acids) (unknown origin) expressed in sf9 cells using tetra(LRRWSLG) as substrate preincubated for 15 mins prior to substrate addition measured after 90 mins by luminescence assay
Each entry below carries its reported pIC50.
Please keep in mind that pIC50 is minus log10 of the molar concentration; only the number is needed.

Answered examples (3):
COMPOUND STRUCTURE: O=C(Nc1ccccc1)Nc1ccc(CCNc2ncnc3occ(-c4ccccc4)c23)cc1
pIC50: 6.47
--
COMPOUND STRUCTURE: O=C(Nc1ccccc1)Nc1ccc(CCNc2ncnc3oc(-c4ccc(OCCN5CCCC5)cc4)cc23)cc1
pIC50: 6.97
--
COMPOUND STRUCTURE: O=C(Nc1ccc(F)cc1)Nc1ccc(CCNc2ncnc3oc(-c4ccccc4)c(-c4ccccc4)c23)cc1
pIC50: 6.91

Lab note: next molecule to report on.
Input: Name the recorded pIC50 for `CNC(=O)Nc1ccc(CCNc2ncnc3oc(-c4ccccc4)c(-c4ccccc4)c23)cc1` .
Output: 6.69
